Listed next: entries and their corresponding EC50.
Target: human TLR8 (Homo sapiens)
Sequence (Q9NR97 27-1041): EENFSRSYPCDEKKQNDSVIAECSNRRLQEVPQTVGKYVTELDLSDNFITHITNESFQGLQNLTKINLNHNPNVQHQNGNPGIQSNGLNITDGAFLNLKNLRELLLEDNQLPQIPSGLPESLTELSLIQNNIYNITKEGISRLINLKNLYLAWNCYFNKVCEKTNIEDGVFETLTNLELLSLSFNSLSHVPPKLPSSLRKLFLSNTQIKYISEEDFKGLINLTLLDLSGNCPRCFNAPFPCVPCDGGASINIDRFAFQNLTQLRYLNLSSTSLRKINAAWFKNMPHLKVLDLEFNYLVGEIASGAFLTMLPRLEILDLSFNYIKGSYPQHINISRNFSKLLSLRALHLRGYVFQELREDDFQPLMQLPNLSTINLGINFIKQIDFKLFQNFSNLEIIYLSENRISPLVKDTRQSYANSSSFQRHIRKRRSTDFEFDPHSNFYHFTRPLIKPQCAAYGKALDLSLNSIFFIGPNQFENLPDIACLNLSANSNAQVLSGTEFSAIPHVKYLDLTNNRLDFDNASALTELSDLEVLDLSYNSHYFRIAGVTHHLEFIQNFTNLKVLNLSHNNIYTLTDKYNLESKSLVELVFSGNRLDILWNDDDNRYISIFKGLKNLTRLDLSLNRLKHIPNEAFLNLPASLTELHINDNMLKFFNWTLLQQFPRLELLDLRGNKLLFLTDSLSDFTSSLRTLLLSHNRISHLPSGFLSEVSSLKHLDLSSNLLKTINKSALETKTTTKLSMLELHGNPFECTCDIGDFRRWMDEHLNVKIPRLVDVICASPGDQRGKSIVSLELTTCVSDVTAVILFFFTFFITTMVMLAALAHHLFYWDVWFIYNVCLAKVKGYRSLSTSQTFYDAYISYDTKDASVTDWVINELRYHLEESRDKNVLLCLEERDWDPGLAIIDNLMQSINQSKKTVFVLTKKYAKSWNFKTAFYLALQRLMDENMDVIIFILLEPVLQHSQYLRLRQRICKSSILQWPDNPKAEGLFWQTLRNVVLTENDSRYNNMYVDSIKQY
Experiment: HEK293 hTLR8 NFKB-SEAP reporter assay
Conditions: HEK293 stably transfected with hTLR8, 24 h stimulation, aqueous formulations of choline salts (2% glycerol), SEAP readout; read-out: TLR8 ED50
State the answer as a number, implicitly in nM.

INSERT INTO measurements (molecule, target_entity, result) VALUES
  ('CCCCCCCC/C=C\CCCCCCCC(=O)OC[C@H](COP(=O)(O)OCCN1CCC(Cn2c(=O)[nH]c3c(N)nc(O[C@@H](C)CCC)nc32)CC1)OC(=O)CCCCCCC/C=C\CCCCCCCC [Compound 1]', 'human TLR8 (Homo sapiens)', 470),
  ('CCC[C@H](C)Oc1nc(N)c2[nH]c(=O)n(CC3CCN(CCO)CC3)c2n1', 'human TLR8 (Homo sapiens)', 530),
  ('CC/C=C\CC(=O)OC[C@H](COP(=O)(O)OCCn1c(CCCC)nc2c(N)nc3ccccc3c21)OC(=O)C/C=C\CC [reference compound]', 'human TLR8 (Homo sapiens)', 26000);

Now consider a different molecule.
(Q) Test system human TLR8 (Homo sapiens); read-out EC50; what value for CCCCc1nc2c(N)nc3ccccc3c2n1CCO [reference compound] ?
(A) 190

Every entry's value here was drawn from patent US20210371440A1.
